Provenance of the data: the COVID Moonshot data (paper PMC11187573)

Target: SARS-CoV-2 Main Protease (SARS-CoV-2) (UniProt P0DTD1)
Label y when IC50 is strictly below 1 µM; at or above that, label n.

Please review the entries below; each comes with its answer.
INSERT INTO measurements (compound, answer_label) VALUES
  ('O=C(Cc1cc(Cl)cc(Nc2ccc(C(F)(F)F)cn2)c1)Nc1cncc2ccccc12', 'n'),
  ('CC(NC(=O)COc1ccc(C(N)=O)cc1)(C(=O)Nc1cncc2ccccc12)c1ccc(Cl)c(Cl)c1 (stereo not drawn)', 'n'),
  ('O=C(Cc1ccc(Cl)c(Cl)c1)Nc1cncc2ccccc12', 'y'),
  ('O=C(Cc1cc(Cl)cc(OC2CC(=O)N2)c1)Nc1cncc2ccccc12 (stereo not drawn)', 'y'),
  ('CC(=O)N1CCN(CC(=O)Nc2cncc3ccccc23)CC1', 'n');

Ask: IC50 strictly < 1 µM for this compound? COC(=O)c1ccc(-c2cc(Cl)cc(CC(=O)Nc3cnccc3C)c2)c(OC)c1
Result: n

Ask: A record lists O=C(Nc1cncc2ccccc12)[C@@H]1CCNc2cc(Cl)c(Cl)cc21 (stereo in doubt) . Is its IC50 below 1 µM?
Result: y

Ask: Determine if CC(NC(=O)CN)(C(=O)Nc1cncc2ccccc12)c1ccc(Cl)c(Cl)c1 (stereo not drawn) shows IC50 strictly lower than 1 µM.
Result: n
